From: the nanobody polyreactivity screen of Harvey et al. (2022)

TEST_NAME: yeast display, Sf9 membrane polyspecificity reagent, FACS + sequencing; frameworks hold sequencing errors

# SEQ, polyreactivity (PSR sort gate)
rows = [
    ("QVQLVESGGGLVQAGGSLRLSCAASGFIFPWYTMGWYRQAPGKERELVAVINQSGGSTYYADSVKGRFTISRDNAKNTVYLQMNSLKPEDTAVYYCAAKSYRGSVKLRWSERGYWGQGTQVTVSS", "high polyreactivity"),
    ("QVQLVESGGGLVQAGGSLRLSCAASGSTFRYYVMGWSRQAPGKEMELVAGISYRGGTTYYADSVKGRFTISRDNAKITVYLQMNSMKPEDTAVYYCNAGYTLYHYYSWYAFGYWGQGTQGTVSS", "low polyreactivity"),
    ("QVQLVESGGGLVQAGGSLRLSCAASGSTFARNAMGRNRQAPGKERELVARITWSGSGTFYADPVKGRFTISRDNAKNTVYLQMYCLKPQDTAVYYCASEGPSAGFDYWGQGTQVTVSS", "high polyreactivity"),
    ("QVQLVESGGGLVQAGGSLRLSCAASGRIFPPYDMGWYRQATGKEREFVAAIDWTGGSTYYADSVKGRFTISRDNAKNTVYLQMNSLKPEDTAVYYCNAEQSYRGVGWRYDYWGQGTQVTVSS", "low polyreactivity"),
    ("QVQLVESGGGIVQAGGSLRLSCAASGFTFTYNTKGWYRQEPGKERELVAAISRSGGSTYYADSVKGRFTISRDNAKNTVYLQLNSLKPEDSAVYYCAKQRRDDNGGYWGLGTQVTVSS", "high polyreactivity"),
    ("QVQLVESGVGLVQAGGSLRLSCAASGRTFGVYAMGWYRQAPGKESTYYADSVKGRFTISRDNAKNTVYLQMNSLKPEDTAVYYCNARGGFGYITMDYWGQGTQVTVSS", "low polyreactivity"),
    ("QVQLVESGGGLVQAGGSLRLSCAASGRTFDDNAMGWYRPAPGKARELVAAISTTGSTNYADSVKGRFTISRDNAQTTVYLQMNSLKPEDTAFYYCAADSTPYVRSGNYDYWGQGTQVTVSS", "low polyreactivity"),
    ("QVQLVESGGGLVQAGGSLRLSCAASGSIIGTYAMGWYRQAPGKERELVAAISSSGGRTYYADSVKGRFTISRDNAKNTVYLQMNILKTEYTAVYYCNTRPGTVFRAGGDYWGQGTQVTVSS", "high polyreactivity"),
    ("QFQLVESGGGLVQAGGSLRLSCAASGSIFYRYAMGSDRQAPGKERELVAAISTGGGSTKYADSVKGRFTISRHNAKNTVYLQMNSLKPEDTAVYYCAASRAVTQYSGGGYGGQGTQVTVSS", "high polyreactivity"),
    ("QVQLVESGGGLVQAGGSRRLSCAPSGSIIGEYAMGWYRQAAGKERELVAAINVNGGRTYYADSVKGRFTISRDNAKYTVYLQMNRLKPEETAVYYCNAGYYLTLDYWGQGTQVTVSS", "high polyreactivity"),
    ("QVQLQERGGGLVQAGGSLLSCAASGTISYYREMGWYRQAPGKERELVAGIGVGTITYYADSVKGRFTISRDNAKNTVYLQMNRLKPEDTAVYFCAAHIDGNDSHAYWGQGTQVTVSS", "low polyreactivity"),
]
